assay: Volume of distribution at steady state in dog at 1 mg/kg, iv
Type: ADME, organism-based, Canis lupus familiaris
Design: dose 1 mg/kg, route intravenous
cond: in vivo, read-out: Vdss
observation_type: Vd (L/kg)
Field format: number, assumed L/kg, no unit text.

Q: What value of Vd has been reported for the following compound? COc1ccc(CNC(=O)c2cc(-c3cncc(C)c3)ncc2-c2nccs2)nc1OC
Ans: 0.7

* * *

assay: Drug uptake in mouse CSF at 100 mg/kg, po after 2 hrs
Type: ADME, organism-based
Parameters: dose 100 mg/kg, route oral
cond: cerebrospinal fluid, read-out: Drug uptake
observation_type: concentration at 2 h (µM)
Field format: number, assumed µM, no unit text.

Q: What value of concentration at 2 h has been reported for the following compound? COc1ccc(CNC(=O)c2cc(-c3cncc(C)c3)ncc2-c2nccs2)nc1OC
Ans: 4.9

* * *

assay: Clearance in dog at 1 mg/kg, iv
Assay type: ADME, organism-based, Canis lupus familiaris
Design: dose 1 mg/kg, route intravenous
cond: in vivo
observation_type: clearance
Please answer using the number first and the unit second.

Q: What value of clearance has been reported for the following compound? COc1ccc(CNC(=O)c2cc(-c3cncc(C)c3)ncc2-c2nccs2)nc1OC
Ans: 7.2 mL/min/kg

* * *

assay: Cmax in dog at 3 mg/kg, po
Format: ADME, organism-based, Canis lupus familiaris
Design: dose 3 mg/kg, route oral
cond: in vivo
observation_type: Cmax (nM)
Field format: number, assumed nM, no unit text.

Q: What value of Cmax has been reported for the following molecule? COc1ccc(CNC(=O)c2cc(-c3cncc(C)c3)ncc2-c2nccs2)nc1OC
Ans: 2700

* * *

assay: Clearance in dog with cassette dosing
Type: ADME, organism-based, Canis lupus familiaris
cond: in vivo
observation_type: clearance (mL/min/kg)
Field format: number, assumed mL/min/kg, no unit text.

> print(dat)
                           structure.string  observation.type  value.unit  observed.measurement
1  COc1ccc(CNC(=O)c2cc(-c3cncc(C)c3)ncc2N2CCC2)nc1OC         clearance   mL/min/kg                    19
2  COc1ccc(CNC(=O)c2cc(-c3cncc(C)c3)ncc2-c2cnccn2)nc1OC         clearance   mL/min/kg                    24

Q: What value of clearance has been reported for the following compound? COc1ccc(CNC(=O)c2cc(-c3cncc(C)c3)ncc2-c2ccccc2)nc1OC
Ans: 15

Q: What value of clearance has been reported for the following compound? COc1ccc(CNC(=O)c2cc(-c3cncc(C)c3)cnc2-c2ccccc2)nc1OC
Ans: 27

* * *

assay: Tmax in rat at dog at 3 mg/kg, po
Assay type: ADME, organism-based, Canis lupus familiaris
Set-up: dose 3 mg/kg, route oral
cond: in vivo
observation_type: Tmax
Please answer using the number first and the unit second.

Q: What value of Tmax has been reported for the following compound? COc1ccc(CNC(=O)c2cc(-c3cncc(C)c3)ncc2-c2nccs2)nc1OC
Ans: 42 min

* * *

assay: Drug degradation in buffer assessed as compound remaining at pH 2 after 24 hrs
Type: physicochemical
cond: pH 2, read-out: Stability
observation_type: remaining at 24 h (%)
Field format: number, assumed %, no unit text.

> print(dat)
                           structure.string   observation.type  observed.measurement
1  COc1ccc(CNC(=O)c2cc(-c3cncc(Cl)c3)cnc2-c2ccccc2)nc1OC  remaining at 24 h                   100

Next molecule, please.
Q: What value of remaining at 24 h has been reported for the following molecule? COc1ccc(CNC(=O)c2cc(-c3cncc(C)c3)cnc2-c2ccccc2)nc1OC
Ans: 100

* * *

Parameter kinact: see the listing below.
assayed_target: CYP3A4 (Homo sapiens, UniProt P08684)
Sequence (P08684 whole entry): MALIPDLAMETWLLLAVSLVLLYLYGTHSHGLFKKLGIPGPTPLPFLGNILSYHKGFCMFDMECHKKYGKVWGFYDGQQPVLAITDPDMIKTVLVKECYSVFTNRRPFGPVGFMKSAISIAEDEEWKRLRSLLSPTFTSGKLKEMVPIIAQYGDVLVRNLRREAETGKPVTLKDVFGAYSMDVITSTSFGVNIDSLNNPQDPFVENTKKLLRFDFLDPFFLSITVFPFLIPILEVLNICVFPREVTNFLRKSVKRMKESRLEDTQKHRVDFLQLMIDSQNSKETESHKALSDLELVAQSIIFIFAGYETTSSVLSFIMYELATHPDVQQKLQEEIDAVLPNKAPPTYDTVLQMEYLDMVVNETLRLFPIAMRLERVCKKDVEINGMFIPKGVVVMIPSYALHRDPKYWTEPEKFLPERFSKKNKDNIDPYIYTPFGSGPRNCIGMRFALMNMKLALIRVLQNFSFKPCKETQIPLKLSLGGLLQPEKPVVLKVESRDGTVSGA
assay: Time dependent inhibition of CYP3A4 (unknown origin)
Type: ADME
cond: human
Field format: number, assumed s⁻¹, no unit text.

> print(dat)
                                   compound  observed.measurement
1  COc1ccc(CNC(=O)c2cc(-c3cncc(C)c3)ncc2-c2ccccc2)nc1OC              0.000217

Next compound, please.
Q: What value of kinact has been reported for the following compound? COc1ccc(CNC(=O)c2cc(-c3cncc(Cl)c3)cnc2-c2ccccn2)nc1OC [MK-1064]
Ans: 0.00183

* * *

assay: AUC in Sprague-Dawley rat at 15 mg/kg, po
Type: ADME, organism-based
Design: dose 15 mg/kg, route oral
cond: plasma
observation_type: AUC
Please answer using the number first and the unit second.

Q: What value of AUC has been reported for the following compound? COc1ccc(CNC(=O)c2cc(-c3cncc(C)c3)ncc2-c2nccs2)nc1OC
Ans: 17.2 µM·h

* * *

assay: Half life in dog at 1 mg/kg, iv
Type: ADME, organism-based, Canis lupus familiaris
Parameters: dose 1 mg/kg, route intravenous
cond: in vivo
observation_type: half-life (h)
Field format: number, assumed h, no unit text.

Q: What value of half-life has been reported for the following compound? COc1ccc(CNC(=O)c2cc(-c3cncc(C)c3)ncc2-c2nccs2)nc1OC
Ans: 1.2

* * *

assayed_target: Orexin/Hypocretin receptor type 1 (Homo sapiens, UniProt O43613, I408V)
Sequence (O43613 whole entry I408V): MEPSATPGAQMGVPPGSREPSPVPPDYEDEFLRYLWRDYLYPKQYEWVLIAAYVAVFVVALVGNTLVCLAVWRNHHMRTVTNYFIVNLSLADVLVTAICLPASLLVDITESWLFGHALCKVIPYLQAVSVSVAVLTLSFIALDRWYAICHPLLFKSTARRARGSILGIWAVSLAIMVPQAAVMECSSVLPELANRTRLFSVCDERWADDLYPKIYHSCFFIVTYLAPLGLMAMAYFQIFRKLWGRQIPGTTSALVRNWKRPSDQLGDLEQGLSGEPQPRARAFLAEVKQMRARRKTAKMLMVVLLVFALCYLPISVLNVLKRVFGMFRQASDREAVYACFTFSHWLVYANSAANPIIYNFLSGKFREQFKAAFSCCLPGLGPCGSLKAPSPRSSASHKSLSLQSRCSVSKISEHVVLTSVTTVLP
assay: Antagonist activity at human OX1R I408V mutant expressed in CHO cells assessed as inhibition of Ala-6,12-orexinA-induced effect after 5 mins by FLIPR assay
observation_type: IC50 (µM)
Field format: number, assumed µM, no unit text.

Here is how some compounds turned out for IC50.
> print(dat)
                           structure.string  observed.measurement
1  COc1ccc(CNC(=O)c2cc(-c3cncc(C)c3)ncc2-c2ccccc2)nc1OC                   2.8
2  COc1ccc(CNC(=O)c2cc(-c3cncc(C)c3)ncc2N2CCOCC2)nc1OC                    10
3  COc1ccc(CNC(=O)c2cc(-c3cncc(C)c3)ncc2-c2ccccn2)nc1OC                  4.65
4  COc1ccc(CNC(=O)c2cc(-c3cncc(C)c3)ncc2-c2cnn(C)c2)nc1OC                    10
5  COc1ccc(CNC(=O)c2cc(-c3cncc(C)c3)ncc2-c2ccnnc2)nc1OC                    15
6  COc1ccc(CNC(=O)c2cc(-c3cncc(C)c3)ncc2-c2ccccc2F)nc1OC                     3

Next compound, please.
Q: What value of IC50 has been reported for the following compound? COc1ccc(CNC(=O)c2cc(-c3cncc(C)c3)ccc2-c2ccccc2)nc1OC
Ans: 1.54

* * *

assay: Drug uptake in dog CSF at 3 mg/kg, po
Assay type: ADME, organism-based, Canis lupus familiaris, Cerebrospinal fluid
Parameters: dose 3 mg/kg, route oral
cond: in vivo, read-out: Drug uptake
observation_type: concentration

Q: What value of concentration has been reported for the following compound? COc1ccc(CNC(=O)c2cc(-c3cncc(C)c3)ncc2-c2nccs2)nc1OC
Ans: 460 nM

* * *

assay: Cmax in Sprague-Dawley rat at 15 mg/kg, po
Format: ADME, organism-based
Parameters: dose 15 mg/kg, route oral
cond: in vivo
observation_type: Cmax (µM)
Field format: number, assumed µM, no unit text.

Q: What value of Cmax has been reported for the following compound? COc1ccc(CNC(=O)c2cc(-c3cncc(C)c3)ncc2-c2nccs2)nc1OC
Ans: 5.3

* * *

assay: Tmax in mouse at 100 mg/kg, po
Type: ADME, organism-based
Design: dose 100 mg/kg, route oral
cond: in vivo
observation_type: Tmax (h)
Field format: number, assumed h, no unit text.

Q: What value of Tmax has been reported for the following compound? COc1ccc(CNC(=O)c2cc(-c3cncc(C)c3)ncc2-c2nccs2)nc1OC
Ans: 2

* * *

assay: AUC (0 to infinity) in rat at 5 mg/kg, po
Type: ADME, organism-based
Parameters: time infinity, dose 5 mg/kg, route oral
cond: plasma
observation_type: AUC(0-inf) (µM·h)
Field format: number, assumed µM·h, no unit text.

Q: What value of AUC(0-inf) has been reported for the following molecule? COc1ccc(CNC(=O)c2cc(-c3cncc(C)c3)ncc2-c2nccs2)nc1OC
Ans: 3

* * *

assay: Drug uptake in Sprague-Dawley rat CSF at 15 mg/kg, po
Format: ADME, organism-based, Cerebrospinal fluid
Parameters: dose 15 mg/kg, route oral
cond: in vivo, read-out: Drug uptake
observation_type: concentration

Q: What value of concentration has been reported for the following compound? COc1ccc(CNC(=O)c2cc(-c3cncc(C)c3)ncc2-c2nccs2)nc1OC
Ans: 900 nM

* * *

assayed_target: Nuclear receptor subfamily 1 group I member 2 (Homo sapiens, UniProt O75469)
Sequence (O75469 whole entry): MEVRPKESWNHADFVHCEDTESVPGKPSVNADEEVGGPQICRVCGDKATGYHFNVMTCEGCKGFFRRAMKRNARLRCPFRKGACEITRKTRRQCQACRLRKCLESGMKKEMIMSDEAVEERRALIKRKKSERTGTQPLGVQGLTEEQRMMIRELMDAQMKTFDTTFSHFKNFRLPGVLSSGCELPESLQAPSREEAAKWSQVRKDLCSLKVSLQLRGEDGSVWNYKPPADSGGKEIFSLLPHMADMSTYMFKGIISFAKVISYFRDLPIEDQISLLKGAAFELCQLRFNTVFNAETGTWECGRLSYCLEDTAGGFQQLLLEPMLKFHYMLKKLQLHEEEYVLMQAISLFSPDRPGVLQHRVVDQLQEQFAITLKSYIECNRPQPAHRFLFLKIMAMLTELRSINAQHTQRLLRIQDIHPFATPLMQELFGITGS
assay: Activation of PXR (unknown origin)
pEC50: −log10 of the molar value.
observation_type: pEC50

Q: What value of pEC50 has been reported for the following compound? COc1ccc(CNC(=O)c2cc(-c3cncc(C)c3)ncc2-c2nccs2)nc1OC
Ans: < 4.52

* * *

assay: Tmax in Sprague-Dawley rat at 15 mg/kg, po
Type: ADME, organism-based
Parameters: dose 15 mg/kg, route oral
cond: in vivo
observation_type: Tmax

Q: What value of Tmax has been reported for the following compound? COc1ccc(CNC(=O)c2cc(-c3cncc(C)c3)ncc2-c2nccs2)nc1OC
Ans: 48 min
